test system: Bacillus subtilis
measurement.type: MIC (µM)

1) CC(C)[C@H](N)C(=O)N[C@@H](CCCCN)C(=O)N[C@@H](CCCN=C(N)N)C(=O)N[C@@H](Cc1c[nH]c2ccccc12)C(=O)N[C@@H](CCCCN)C(=O)N[C@@H](CCCCN)C(=O)N[C@@H](Cc1ccccc1)C(=O)N[C@@H](Cc1c[nH]c2ccccc12)C(=O)N[C@@H](CCCN=C(N)N)C(=O)N[C@@H](CCCCN)C(=O)N[C@@H](Cc1c[nH]c2ccccc12)C(=O)N[C@@H](CCCCN)C(=O)N[C@@H](CCCCN)C(=O)N[C@@H](Cc1c[nH]c2ccccc12)C(=O)N[C@@H](Cc1c[nH]c2ccccc12)C(N)=O    2.06
2) CC[C@H](C)[C@H](N)C(=O)N[C@@H](CC(N)=O)C(=O)N[C@@H](Cc1c[nH]c2ccccc12)C(=O)N[C@@H](CCCCN)C(=O)N[C@@H](CCCCN)C(=O)N[C@H](C(=O)N[C@@H](Cc1ccccc1)C(=O)N[C@@H](CCC(=O)O)C(=O)N[C@@H](CO)C(=O)N[C@H](C(=O)N[C@@H](CCCCN)C(=O)N[C@@H](CC(N)=O)C(=O)N[C@@H](CC(C)C)C(=O)N[C@H](C(N)=O)C(C)C)C(C)C)[C@@H](C)CC    10

---

test system: Micrococcus luteus; assay: ≥ marks a high value that may be exact or a test limit, other limits are often not marked, values filed in µg/mL are converted to µM
measurement.type: MIC

1. CC(=O)N[C@@H](CCCN=C(N)N)C(=O)N[C@@H](Cc1c[nH]c2ccccc12)C(=O)N[C@H](C(=O)N[C@@H](Cc1c[nH]c2ccccc12)C(=O)N[C@@H](CCCN=C(N)N)C(=O)NCC(=O)N[C@@H](CO)C(=O)NCC(=O)N[C@@H](CCCN=C(N)N)C(=O)N[C@@H](Cc1c[nH]c2ccccc12)C(=O)N[C@H](C(=O)N[C@@H](Cc1c[nH]c2ccccc12)C(=O)N[C@@H](CCCN=C(N)N)C(N)=O)[C@@H](C)O)[C@@H](C)O    8.93 µM
2. CC(C)C[C@H](NC(=O)[C@@H](NC(=O)[C@H](CCCCN)NC(=O)[C@H](CO)NC(=O)[C@H](C)NC(=O)[C@@H](NC(=O)[C@H](CCCCN)NC(=O)[C@H](Cc1ccccc1)NC(=O)[C@H](CC(C)C)NC(=O)[C@H](C)NC(=O)CNC(=O)[C@H](CC(C)C)NC(=O)[C@@H](N)Cc1c[nH]c2ccccc12)C(C)C)C(C)C)C(=O)O    1.12 µM
3. CC[C@H](C)[C@H](NC(=O)CN)C(=O)NCC(=O)N[C@@H](CCCCN)C(=O)N[C@@H](Cc1ccccc1)C(=O)N[C@@H](CC(C)C)C(=O)N[C@@H](CCCCN)C(=O)N[C@@H](CCCCN)C(=O)N[C@@H](C)C(=O)N[C@@H](CCCCN)C(=O)N[C@@H](CCCCN)C(=O)N[C@@H](Cc1ccccc1)C(=O)NCC(=O)N[C@@H](CCCCN)C(=O)N[C@@H](C)C(=O)N[C@@H](Cc1ccccc1)C(=O)N[C@H](C(=O)N[C@@H](CCCCN)C(=O)N[C@@H](CCSC)C(=O)N[C@@H](CCCCN)C(=O)N[C@@H](CCCCN)C(N)=O)C(C)C    0.707 µM

Attribution: DBAASP
